- target or test system: human AR (Homo sapiens)
- protocol: AR whole cell competitive binding assay (COS-1 cells, 3H-DHT)
- particulars: 1 nM 3H-DHT, Cheng-Prusoff
Response field label takes Satisfied when Ki is strictly below 20 nM and Not satisfied in all other cases.

CCCN(CC1CC1)c1ccc2[nH]c(=O)cc(C(F)(F)F)c2c1: Satisfied

Then this compound:
Incoming: # check: Ki < 20 nM for CC1COC(C(F)(F)F)N1c1ccc2[nH]c(=O)cc(C(F)(F)F)c2c1 (racemic)
Outgoing: Not satisfied

---

- target or test system: human AR (Homo sapiens, UniProt P10275)
- Sequence (P10275 1-920): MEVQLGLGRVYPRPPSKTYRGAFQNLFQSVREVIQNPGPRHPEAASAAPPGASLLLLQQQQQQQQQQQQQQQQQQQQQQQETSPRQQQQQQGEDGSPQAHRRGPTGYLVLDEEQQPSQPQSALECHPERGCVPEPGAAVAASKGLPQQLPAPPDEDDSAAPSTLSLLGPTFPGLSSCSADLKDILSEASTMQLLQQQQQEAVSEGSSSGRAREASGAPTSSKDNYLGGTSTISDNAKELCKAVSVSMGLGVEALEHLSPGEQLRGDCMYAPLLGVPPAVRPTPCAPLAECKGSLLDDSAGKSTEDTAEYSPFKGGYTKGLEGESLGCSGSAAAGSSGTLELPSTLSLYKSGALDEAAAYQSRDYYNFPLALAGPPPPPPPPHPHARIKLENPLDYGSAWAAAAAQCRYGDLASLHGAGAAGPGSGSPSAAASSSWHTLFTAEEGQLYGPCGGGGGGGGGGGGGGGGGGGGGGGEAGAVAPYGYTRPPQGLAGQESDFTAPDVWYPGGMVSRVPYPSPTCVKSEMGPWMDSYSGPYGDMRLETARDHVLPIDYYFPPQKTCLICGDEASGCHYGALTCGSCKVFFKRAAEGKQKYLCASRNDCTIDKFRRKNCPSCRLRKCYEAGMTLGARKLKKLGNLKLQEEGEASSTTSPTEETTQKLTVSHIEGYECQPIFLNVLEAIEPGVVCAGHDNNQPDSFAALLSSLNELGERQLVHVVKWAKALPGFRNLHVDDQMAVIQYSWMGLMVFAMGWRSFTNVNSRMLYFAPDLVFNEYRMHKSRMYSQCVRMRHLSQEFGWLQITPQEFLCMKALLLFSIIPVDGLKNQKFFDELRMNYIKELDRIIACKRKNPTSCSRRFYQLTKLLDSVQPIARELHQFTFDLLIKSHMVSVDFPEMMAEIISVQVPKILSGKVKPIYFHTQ
- protocol: Co-transfection assay, AR antagonist activity (CV-1 cells, in presence of DHT)
- Format: cell-based
- particulars: read-out: AR Antagonist CV-1 Cells Potency
value kind: log10 of IC50 (log10 of the value in µM)
For clarity, the numbers are log10 values of IC50 expressed in µM.

Recorded results for 3 compounds are shown here.
O=c1[nH]c2cc(NC3CCCC3)ccc2c(C(F)(F)F)c1F: -1.55
O=c1cc(C(F)(F)F)c2cc(N3CCCc4ccccc43)ccc2[nH]1: -1.62
CC1OC(=O)Nc2ccc(C3=CCCCC3)cc21 (racemic): -1.77

# log10 of IC50 (compound: CC(C)c1ccc2c(c1)CN(C)C(=O)N2 ) is -1.49

Note to self: log10 of IC50 recorded for CC(C)Nc1ccc2c(C(F)(F)F)c(F)c(=O)[nH]c2c1 was -1.22

---

- target or test system: UniProtKB P10275
- Sequence (P10275 1-920): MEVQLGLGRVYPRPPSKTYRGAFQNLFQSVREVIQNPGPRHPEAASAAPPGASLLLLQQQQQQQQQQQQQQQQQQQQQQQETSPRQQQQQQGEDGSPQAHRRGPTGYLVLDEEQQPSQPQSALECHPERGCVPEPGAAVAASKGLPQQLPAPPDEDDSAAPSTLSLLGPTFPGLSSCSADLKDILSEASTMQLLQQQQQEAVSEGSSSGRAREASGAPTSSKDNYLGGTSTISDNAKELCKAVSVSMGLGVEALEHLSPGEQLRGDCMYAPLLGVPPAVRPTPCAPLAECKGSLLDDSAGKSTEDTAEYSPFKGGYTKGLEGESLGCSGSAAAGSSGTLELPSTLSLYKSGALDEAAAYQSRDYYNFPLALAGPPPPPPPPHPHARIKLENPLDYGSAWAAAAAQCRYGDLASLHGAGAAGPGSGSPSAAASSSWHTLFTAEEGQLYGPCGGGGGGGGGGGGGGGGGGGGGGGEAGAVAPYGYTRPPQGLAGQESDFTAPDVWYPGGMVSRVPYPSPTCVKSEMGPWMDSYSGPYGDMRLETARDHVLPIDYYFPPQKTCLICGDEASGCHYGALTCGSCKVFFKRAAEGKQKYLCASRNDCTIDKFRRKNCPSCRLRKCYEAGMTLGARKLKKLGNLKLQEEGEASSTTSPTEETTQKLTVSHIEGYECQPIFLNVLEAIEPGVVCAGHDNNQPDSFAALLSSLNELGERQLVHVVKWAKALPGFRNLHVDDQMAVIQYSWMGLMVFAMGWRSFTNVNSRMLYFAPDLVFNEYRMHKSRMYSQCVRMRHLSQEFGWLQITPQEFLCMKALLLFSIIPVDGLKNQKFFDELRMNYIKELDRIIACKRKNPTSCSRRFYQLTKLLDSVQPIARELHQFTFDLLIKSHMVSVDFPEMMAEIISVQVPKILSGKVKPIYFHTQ
- protocol: AR whole cell competitive binding assay (COS-1 cells, 3H-DHT)
- particulars: 1 nM 3H-DHT, Cheng-Prusoff
value kind: pKi
# pKi: negative log10 of molar concentration; output just the value

Nc1cc2[nH]c(=O)cc(C(F)(F)F)c2cc1OCC(F)(F)F [Compound 571]: 7.15
CC1(C)OC(=O)Nc2ccc(N(CC(F)(F)F)CC(F)(F)F)cc21 [Compound 490]: 7.92
O=c1cc(C(F)(F)F)c2cc(N(CC(F)(F)C(F)(F)F)CC(F)(F)C(F)(F)F)ccc2[nH]1 [Compound 224]: 6.69

Noted pKi for O=c1cc(C(F)(F)F)c2cc(C(O)(c3ccccc3)c3ccccc3)ccc2[nH]1 [Compound 659] , tested on UniProtKB P10275: 7.40

Lab note: compound CC(C)c1ccc2[nH]c(=O)cc(C(F)(F)F)c2c1 [Compound 615] tested on UniProtKB P10275; recorded pKi was 7.25

Item CS(=O)(=O)N(CC(F)(F)F)c1ccc2[nH]c(=O)cc(C(F)(F)F)c2c1 [Compound 295] ; assay system UniProtKB P10275; pKi reported as 7.07

Case O=c1cc(C(F)(F)F)c2cc(N3CCCC[C@H]3CCl)ccc2[nH]1 [Compound 432] , UniProtKB P10275, pKi recorded as 7.49

Bench note, UniProtKB P10275: entry COc1cccc(-c2ccc3[nH]c(=O)cc(C)c3c2)c1 [Compound 758] , its pKi = 8.44

---

- target or test system: PR (Homo sapiens, UniProt P06401)
- protocol: Co-transfection assay, PR antagonist activity (CV-1 cells, in presence of progesterone)
- Type: cell-based
- Parameters: expressed in transfected cells; host or cells: CV-1 cells
- particulars: CV-1 cells; percent maximal inhibition, progesterone at its EC50
PR Antagonist CV-1 Cells Efficacy (%) of 80% or higher: 1. Under 80%: 0.

Incoming: Evaluate CC(=O)c1cccc(-c2ccc3[nH]c(=O)cc(C(F)(F)F)c3c2)c1 : PR Antagonist CV-1 Cells Efficacy (%) at minimum 80%?
Outgoing: 1

Incoming: Does the reported PR Antagonist CV-1 Cells Efficacy (%) for CC1(C)OC(=S)Nc2ccc(C3=CCCCC3)cc21 fall at or above the 80% mark?
Outgoing: 0

Incoming: Decide: PR Antagonist CV-1 Cells Efficacy (%) of CC1(C)OC(=O)Nc2ccc(C3CCCCCC3)cc21 >= 80%?
Outgoing: 0

Incoming: Kindly determine if PR Antagonist CV-1 Cells Efficacy (%) recorded for CC1(C)OC(=S)Nc2ccc(C3=CC(=O)CCC3)cc21 is above or exactly 80%.
Outgoing: 1

Incoming: Has CN(C)c1ccc([C@H]2C[C@]3(C)[C@@H](CC[C@]3(O)CCCO)[C@@H]3CCC4=CC(=O)CCC4=C32)cc1 [ZK299, reference compound] a recorded PR Antagonist CV-1 Cells Efficacy (%) greater than or equal to 80%?
Outgoing: 1

---

Known pIC50 of a selection of compounds
- target or test system: PR (Homo sapiens, UniProt P06401)
- Sequence (P06401 1-933): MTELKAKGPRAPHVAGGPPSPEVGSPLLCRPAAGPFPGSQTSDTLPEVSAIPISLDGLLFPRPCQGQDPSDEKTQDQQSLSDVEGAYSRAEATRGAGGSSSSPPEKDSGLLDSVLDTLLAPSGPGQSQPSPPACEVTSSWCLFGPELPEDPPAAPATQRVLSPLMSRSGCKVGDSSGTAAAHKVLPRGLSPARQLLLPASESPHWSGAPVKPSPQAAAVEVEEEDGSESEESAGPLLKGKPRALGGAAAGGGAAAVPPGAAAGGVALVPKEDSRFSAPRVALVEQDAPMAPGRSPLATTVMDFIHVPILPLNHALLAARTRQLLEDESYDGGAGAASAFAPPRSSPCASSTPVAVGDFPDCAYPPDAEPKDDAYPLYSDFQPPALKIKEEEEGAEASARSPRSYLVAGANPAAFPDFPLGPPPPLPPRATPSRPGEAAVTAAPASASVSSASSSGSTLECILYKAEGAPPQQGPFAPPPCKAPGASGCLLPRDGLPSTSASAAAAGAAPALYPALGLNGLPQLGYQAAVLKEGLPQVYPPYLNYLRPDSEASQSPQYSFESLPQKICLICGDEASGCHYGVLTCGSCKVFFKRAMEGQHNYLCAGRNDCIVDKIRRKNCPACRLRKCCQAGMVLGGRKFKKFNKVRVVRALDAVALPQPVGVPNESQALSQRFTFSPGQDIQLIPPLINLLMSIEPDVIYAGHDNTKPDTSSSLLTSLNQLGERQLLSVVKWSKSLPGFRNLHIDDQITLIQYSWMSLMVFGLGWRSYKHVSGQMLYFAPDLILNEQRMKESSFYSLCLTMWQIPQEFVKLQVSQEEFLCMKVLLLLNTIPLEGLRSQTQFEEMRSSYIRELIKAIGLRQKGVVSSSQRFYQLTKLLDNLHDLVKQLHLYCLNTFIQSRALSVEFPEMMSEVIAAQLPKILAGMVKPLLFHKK
- protocol: Co-transfection assay, PR antagonist activity (CV-1 cells, in presence of progesterone)
- Format: cell-based
- Parameters: expressed in transfected cells; host or cells: CV-1 cells
// scale note: pIC50 = -log10(conc_M); give the bare number

Observe how each entry below is paired with its result.
CC(=O)c1cccc(-c2ccc3[nH]c(=O)cc(C(F)(F)F)c3c2)c1: 6.49
O=c1cc(C(F)(F)F)c2cc(-c3cccc(F)c3F)ccc2[nH]1: 6.83
FC(F)(F)c1cc(=S)[nH]c2ccc(C3CCCCC3)cc12: 6.10

# next compound below
pIC50 reading for N#Cc1cc(F)cc(-c2ccc3[nH]c(=O)cc(C(F)(F)F)c3c2)c1 : 7.19
